Test system: biotinyl-Trp-oxazolone
Test protocol: self-aminoacylation, catalytic enhancement (BWO) (fold over background); higher = more active; k-Seq, kA / k0A0; sequences stand for … in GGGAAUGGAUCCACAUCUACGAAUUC…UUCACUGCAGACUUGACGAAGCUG
Fewer inactive variants are shown than the library holds.
# self-aminoacylation per entry
// no unit, no text: just the number

Known self-aminoacylation results, listed for orientation:
>  <Residues>
CCCUACUUCAAGCAAUCGGUC [Fam1B.1 aminoacylation ribozyme variant]

>  <Numeric result>
33.8

$$$$
>  <Residues>
AAGUUUGCUAAUCGUCGGAAG [Fam3.1 aminoacylation ribozyme variant]

>  <Numeric result>
1.42

$$$$
>  <Residues>
GCACACUGCAAGCAAUCGGUC [Fam1B.1 aminoacylation ribozyme variant]

>  <Numeric result>
2.4

$$$$
>  <Residues>
AAGUUUAGUAAUAGUCGCAAG [Fam3.1 aminoacylation ribozyme variant]

>  <Numeric result>
1.23

$$$$
>  <Residues>
AGUAACCUGGUCAUCGAGUGA [Fam2.1 aminoacylation ribozyme variant]

>  <Numeric result>
4.62

$$$$

Hey, biotinyl-Trp-oxazolone data for AAGUUUGGUAAUAGUCGUAAG [Fam3.1 aminoacylation ribozyme variant] : self-aminoacylation came out at 1.11

Hey, biotinyl-Trp-oxazolone data for AUUACCCUGAGCAUCGAGUGA [Fam2.1 aminoacylation ribozyme variant] : self-aminoacylation came out at 4.96

Hey, biotinyl-Trp-oxazolone data for CCACACUGCAAGCAAUCGGCC [Fam1B.1 aminoacylation ribozyme variant] : self-aminoacylation came out at 3.9

Hey, biotinyl-Trp-oxazolone data for AACUUUGCUAAGAGUCGCAAG [Fam3.1 aminoacylation ribozyme variant] : self-aminoacylation came out at 5.02

Hey, biotinyl-Trp-oxazolone data for AAGUUUGCUAAGAGUGGCAAG [Fam3.1 aminoacylation ribozyme variant] : self-aminoacylation came out at 0.872

Hey, biotinyl-Trp-oxazolone data for AUCACCCUGGUCAUCGAGCGA [Fam2.1 aminoacylation ribozyme variant] : self-aminoacylation came out at 2.62

Hey, biotinyl-Trp-oxazolone data for AUUACCCUGGCCAUCGAGUGA [Fam2.1 aminoacylation ribozyme variant] : self-aminoacylation came out at 3.94

Hey, biotinyl-Trp-oxazolone data for AUUCACCUAGGUUAUCGGCUG [Fam2.2 aminoacylation ribozyme variant] : self-aminoacylation came out at 1.44

Hey, biotinyl-Trp-oxazolone data for AUUACCCUGGUCAUCGAGUAA [Fam2.1 aminoacylation ribozyme variant] : self-aminoacylation came out at 25.3

Hey, biotinyl-Trp-oxazolone data for AAGUUUGUUUAUAGUCGCAAG [Fam3.1 aminoacylation ribozyme variant] : self-aminoacylation came out at 1.52

Hey, biotinyl-Trp-oxazolone data for AGGUUUGCUAAUAGUCGUAAG [Fam3.1 aminoacylation ribozyme variant] : self-aminoacylation came out at 7.24

Hey, biotinyl-Trp-oxazolone data for CCUCCCUUCAAGCAAUCGGUC [Fam1B.1 aminoacylation ribozyme variant] : self-aminoacylation came out at 8.87

Hey, biotinyl-Trp-oxazolone data for AUUCCCCUGGUCGUCGAGUGA [Fam2.1 aminoacylation ribozyme variant] : self-aminoacylation came out at 1.52

---

Test system: biotinyl-Phe-oxazolone
Test protocol: self-aminoacylation, catalytic enhancement (BFO) (fold over background); higher = more active; k-Seq, kA / k0A0; sequences stand for … in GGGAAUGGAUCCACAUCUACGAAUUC…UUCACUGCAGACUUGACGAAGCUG
This sample holds only a part of the variants without activity.
The recorded self-aminoacylation of each item maps onto one of these classes: L (below 10), M (10 to below 40), H (40 or more)

>  <Residues>
AACUUUGCUAAGAGUCGCAAG [Fam3.1 aminoacylation ribozyme variant]

>  <Subject of test>
biotinyl-Phe-oxazolone

>  <Label value>
M

$$$$
>  <Residues>
CUCCUUCAAACAAUCGGUCUG [Fam1A.1 aminoacylation ribozyme variant]

>  <Subject of test>
biotinyl-Phe-oxazolone

>  <Label value>
H

$$$$
>  <Residues>
CUACUUCAAUCAAUCGGUCUU [Fam1A.1 aminoacylation ribozyme variant]

>  <Subject of test>
biotinyl-Phe-oxazolone

>  <Label value>
M

$$$$
>  <Residues>
AAUCACCUAGGUGAUCGGGUG [Fam2.2 aminoacylation ribozyme variant]

>  <Subject of test>
biotinyl-Phe-oxazolone

>  <Label value>
M

$$$$
>  <Residues>
GAGUUUGCUAAUAGUCGCGAG [Fam3.1 aminoacylation ribozyme variant]

>  <Subject of test>
biotinyl-Phe-oxazolone

>  <Label value>
L

$$$$

Q: Class (by measured self-aminoacylation) for CUACCUCAAACAAUCGUUCUG [Fam1A.1 aminoacylation ribozyme variant]
A: L

Q: Class (by measured self-aminoacylation) for AUUCGUCUAGGUCAUCGGGUG [Fam2.2 aminoacylation ribozyme variant]
A: H

Q: Class (by measured self-aminoacylation) for AUUCACCUAGGACAUAGGGUG [Fam2.2 aminoacylation ribozyme variant]
A: M

// provenance: the supplement of paper PMC9233669
